assay notes: Solvent solubility assessment by visual inspection
Assay type: physicochemical
stated conditions: water, thermodynamic from solid; read-out: Solubility (freely soluble at tested concentration)
Experimental: Compounds were weighed and placed into a 4 dram vials and solvents were added to the target concentration. Compounds were vortex and visually inspected for particulates and considered soluble if clear upon visual inspection with and without magnification. Solubility was reported as either greater than (>) or less than (<) from the prepared concentration. […] It was evaluated at 10 mg/mL in 0.1 N NaCl and was freely soluble. […]
Each entry below lists one item and its recorded Solubility value.

-- ask Please give the documented Solubility of CCOC(=O)Nc1ccc(NCc2ccc(F)cc2)cc1NC(=O)OC(C)OC(=O)C(C)C (centres unmarked)
-- reply < 1 mg/mL

-- ask Please give the documented Solubility of `CCOC(=O)Nc1ccc(NCc2ccc(F)cc2)cc1NC(=O)[C@@H](N)CCCCN`
-- reply > 20 mg/mL
